molecular target: Amyloid-beta precursor protein (Homo sapiens); experiment: Inhibition of amyloid beta (1 to 42) (unknown origin) oligomerization assessed as reduction in intensity of experimental fluorescence plateau at 1:10 Abeta:compound ratio by thioflavin T assay based fluorescence microscopy
Active and inactive are the calls of the source. The calls are words filed in the database; no cut-off is given here. Numbered stars: 1 amine (or outer) side, 2 acyl side, 3 side chain; on linkers, the order of the positions; unused ones are H or OH. Square brackets hold non-standard residues; d marks the D form. Peptide text beside a SMILES is read from it. * marks the point of attachment. X1 = O=C(CCOC[C@H]1O[C@@H](OCCCN[*:1])[C@H](O)[C@@H](O)[C@@H]1O)[*:2]; X2 = O=C(CCOC[C@H]1O[C@@H](OCCN[*:1])[C@H](O)[C@@H](O)[C@@H]1O)[*:2]; X4 = O=C(CCOC[C@H]1O[C@H](OCCCN[*:1])[C@H](O)[C@@H](O)[C@@H]1O)[*:2]; Boc = CC(C)(C)OC(=O)*
endpoint name: Activity

>>> result("COC(=O)[C@H](CC(C)C)NC(=O)[C@@H](NC(=O)CCOC[C@H]1O[C@H](OCCCNC(=O)[C@@H](NC(=O)[C@H](C)NC(=O)OC(C)(C)C)C(C)C)[C@H](O)[C@@H](O)[C@@H]1O)C(C)C (Boc-AV[X4]VL-OMe)")
"inactive"
>>> result("COC(=O)[C@H](CC(C)C)NC(=O)[C@@H](NC(=O)CCOC[C@H]1O[C@H](OCCNC(=O)[C@@H](NC(=O)[C@H](C)NC(=O)OC(C)(C)C)C(C)C)[C@H](OC(C)=O)[C@@H](OC(C)=O)[C@@H]1OC(C)=O)C(C)C")
"inactive"
>>> result("COC(=O)[C@H](CC(C)C)NC(=O)[C@@H](NC(=O)CCOC[C@H]1O[C@@H](OCCNC(=O)[C@@H](NC(=O)[C@H](C)N)C(C)C)[C@H](O)[C@@H](O)[C@@H]1O)C(C)C (H-AV[X2]VL-OMe)")
"inactive"
>>> result("COC(=O)[C@H](CC(C)C)NC(=O)[C@@H](NC(=O)CCOC[C@H]1O[C@@H](OCCCNC(=O)[C@@H](NC(=O)[C@H](C)N)C(C)C)[C@H](O)[C@@H](O)[C@@H]1O)C(C)C (H-AV[X1]VL-OMe)")
"56%"

Numbers sourced from ChEMBL document CHEMBL3351958.
